Quick reference for viability among some compounds
- System: SB.mhdgc-1
- ASSAY DETAILS: viability at highest tested concentration (MAXR) relative to DMSO; higher = less cytotoxic
- ASSAY SETUP: SB.mhdgc-1 (hereditary c.1380delA CDH1 gastric cancer)
Reply numerically in %, unit not repeated.

Worked set:
{"COMPOUND": "COC/1=C/[C@@H]2[C@@H]3CC4=C(C(=C(OC)C=C4)O)[C@]2(CCN3C)CC1=O [Sinomenine] (top concentration 46.0829 µM)", "viability [%]": 24.9}
{"COMPOUND": "Fc1ccc(CNc2ncnc3ccc(F)cc23)cc1 [Spautin-1] (top concentration 46.0829 µM)", "viability [%]": 67.9}
{"COMPOUND": "C[C@H](CCC(=O)O)[C@H]1CC[C@H]2[C@@H]3[C@@H](O)C[C@@H]4C[C@H](O)CC[C@]4(C)[C@H]3CC[C@]12C [Ursodiol] (top concentration 46.0829 µM)", "viability [%]": 121}
{"COMPOUND": "CCN1C[C@H](C)[N]2C(=C(O)C3=C2\\C(=N/N(CC4=CC=C(F)C(=C4)Cl)C3=O)C(=O)NC)C1=O [MK-2048] (top concentration 46.0829 µM)", "viability [%]": 118}
{"COMPOUND": "CN(C)c1ccc(O)c2c1C[C@H]1C[C@H]3[C@H](N(C)C)C(O)=C(C(N)=O)C(=O)[C@@]3(O)C(O)=C1C2=O [Minocycline] (top concentration 46.0829 µM)", "viability [%]": 27.4}

What value of viability has been recorded for this entry: COc1cc2c(cc1OC)C1CC(=O)C(CC(C)C)CN1CC2 (stereo unspecified) [Tetrabenazine] (top concentration 46.0829 µM)
102

----------
Quick reference for viability among some compounds
- Tested on: SB.mhdgc-1
- ASSAY DETAILS: viability at highest tested concentration (MAXR) relative to DMSO; higher = less cytotoxic
- ASSAY SETUP: SB.mhdgc-1 (hereditary c.1380delA CDH1 gastric cancer)
Reply numerically in %, unit not repeated.

Worked set:
{"COMPOUND": "COc1ccc(-c2oc3cc(OC)ccc3c2C(=O)c2ccc(C#N)cc2)cc1 (top concentration 46.0829 µM)", "TARGET DESC": "SB.mhdgc-1", "NUMERIC READOUT": 14.3}
{"COMPOUND": "CN(C)CC[C@H](CSc1ccccc1)Nc1ccc([S+](=O)([O-])NC(=O)c2ccc(N3CCN(Cc4ccccc4-c4ccc(Cl)cc4)CC3)cc2)cc1[N+](=O)[O-] [ABT-737] (top concentration 46.0829 µM)", "TARGET DESC": "SB.mhdgc-1", "NUMERIC READOUT": 3.18}

What value of viability has been recorded for this entry: CN(C)Cc1c(C(=O)NCCOc2ccc(C(=O)NO)cc2)oc2ccccc12 [Abexinostat] (top concentration 46.0829 µM)
4.2

What value of viability has been recorded for this entry: CC(C)NCC(O)c1ccc(NS(C)(=O)=O)cc1 (stereo unspecified) [Sotalol] (top concentration 46.0829 µM)
35.2

What value of viability has been recorded for this entry: COC1=CC=C(C=N1)C/2=C/C3=C(C)N=C(N)N=C3N(C4CCC(CC4)OCCO)C2=O (stereo unspecified) (top concentration 46.0829 µM)
28.8

What value of viability has been recorded for this entry: Cc1ccccc1C(C(=O)NC1CCCC1)N(C(=O)Cn1cnc2ccccc21)c1cccc(F)c1 (stereo unspecified) (top concentration 46.0829 µM)
78.9

----------
- Tested on: SB.mhdgc-1
- ASSAY DETAILS: area under the dose-response curve of % viability (trapezoidal, 11 doses) (% viability x log10 concentration); higher = less cytotoxic
- ASSAY SETUP: SB.mhdgc-1 (hereditary c.1380delA CDH1 gastric cancer)
ASSAY METRIC: area under the dose-response curve

Worked set:
{"MOLECULE": "CN(C)CCN(C)C(=O)c1ccc(NC(=O)Nc2ccc(-c3nc(N4CCOCC4)c4ccn(CC(F)(F)F)c4n3)cc2)cc1 (top concentration 46.0829 µM)", "area under the dose-response curve": 162}
{"MOLECULE": "COc1cc2ncnc(Nc3cccc(Cl)c3)c2cc1OC [AG-1478] (top concentration 46.0829 µM)", "area under the dose-response curve": 308}

We next turn to a different molecule, shown below.
What value of area under the dose-response curve has been recorded for this entry: CC(C)C1=C(O)C=C(O)C(=C1)C/2=N/NC(=O)N2C3=CC4=C(C=C3)[N](C)C=C4 [Ganetespib] (top concentration 46.0829 µM)
336

----------
- Tested on: SB.msgc-1
- ASSAY DETAILS: viability at highest tested concentration (MAXR) relative to DMSO; higher = less cytotoxic
- ASSAY SETUP: SB.msgc-1 (sporadic gastric cancer)
ASSAY METRIC: viability (%)
Reply numerically in %, unit not repeated.

Worked set:
{"MOLECULE": "C=C1C(=O)OC2/C=C(/C)CC/C=C(/C)CCC12 (stereo not given) [Costunolide] (top concentration 46.0829 µM)", "TARGET DESC": "SB.msgc-1", "viability [%]": 40.9}
{"MOLECULE": "CCCCN(CCCC)CCC(O)c1cc2c(Cl)cc(Cl)cc2c2cc(C(F)(F)F)ccc12 (stereo not given) [Halofantrine] (top concentration 46.0829 µM)", "TARGET DESC": "SB.msgc-1", "viability [%]": 71.9}
{"MOLECULE": "COc1ccc(-n2c(C)c([N+](=O)[O-])c3ccc(O)cc32)cc1 [ID-8] (top concentration 46.0829 µM)", "TARGET DESC": "SB.msgc-1", "viability [%]": 108}
{"MOLECULE": "CCN(CC)CCNC(=O)c1c(C)[nH]c(/C=C2\\C(=O)Nc3ccc(F)cc32)c1C [Sunitinib malate] (top concentration 92.1659 µM)", "TARGET DESC": "SB.msgc-1", "viability [%]": 3.83}
{"MOLECULE": "COc1ccc([C@@H]2CNC(=O)C2)cc1OC1CCCC1 [S-(+)-Rolipram] (top concentration 46.0829 µM)", "TARGET DESC": "SB.msgc-1", "viability [%]": 5.46}
{"MOLECULE": "CCCCc1ccc(N[S+](=O)([O-])c2ccc(C)c(C(=O)N3CCN(c4cccc(C)c4C)CC3)c2)cc1 [IDH-001] (top concentration 46.0829 µM)", "TARGET DESC": "SB.msgc-1", "viability [%]": 37.7}

Request: viability, test system SB.msgc-1, entry CC(C)(C)/[N+]([O-])=C/c1ccc([S+](=O)([O-])[O][Na])cc1[S+](=O)([O-])[O][Na] [Disufenton sodium] (top concentration 46.0829 µM)
88.8

Request: viability, test system SB.msgc-1, entry CO[C@H]1C[C@@H]2CC[C@@H](C)[C@@](O)(O2)C(=O)C(=O)N2CCCC[C@H]2C(=O)O[C@H]([C@H](C)C[C@@H]2CC[C@@H](OP(C)(C)=O)[C@H](OC)C2)CC(=O)[C@H](C)/C=C(\C)[C@@H](O)[C@@H](OC)C(=O)[C@H](C)C[C@H](C)/C=C/C=C/C=C/1C [Ridaforolimus] (top concentration 46.0829 µM)
70.8

Request: viability, test system SB.msgc-1, entry C[C@H]1C[C@H]2[C@@H]3CC[C@](O)(C(=O)CO)[C@@]3(C)C[C@H](O)[C@@H]2[C@@]\4(C)/C=C\C(=O)\C=C14 [Methylprednisolone] (top concentration 46.0829 µM)
95

Request: viability, test system SB.msgc-1, entry CCOC(=O)N1c2ccc(C(F)(F)F)cc2[C@@H](N(Cc2cc(C(F)(F)F)cc(C(F)(F)F)c2)C(=O)OC)C[C@H]1CC [Torcetrapib] (top concentration 46.0829 µM)
60.6

----------
- Tested on: SB.msgc-1
- ASSAY DETAILS: area under the dose-response curve of % viability (trapezoidal, 11 doses) (% viability x log10 concentration); higher = less cytotoxic
- ASSAY SETUP: SB.msgc-1 (sporadic gastric cancer)
Where a name gives a salt, the structure may show the parent alone.
Quick reference for area under the dose-response curve among some compounds
Lab note: jot the number down without any unit.

Worked set:
{"COMPOUND": "C[C@]12CC[C@H]3[C@@H](CC(=C)\\C4=C\\C(=O)\\C=C/[C@]34C)[C@@H]1CCC2=O [Exemestane] (top concentration 46.0829 µM)", "TARGET DESC": "SB.msgc-1", "ASSAY METRIC": "area under the dose-response curve", "NUMERIC READOUT": 523}
{"COMPOUND": "N#Cc1cc(NC(=O)Nc2nnc(-c3ccncc3)s2)ccc1-c1cn[nH]c1 (top concentration 46.0829 µM)", "TARGET DESC": "SB.msgc-1", "ASSAY METRIC": "area under the dose-response curve", "NUMERIC READOUT": 500}
{"COMPOUND": "O=c1c(-c2ccc(O)cc2)coc2cc(O[C@@H]3O[C@H](CO)[C@@H](O)[C@H](O)[C@H]3O)ccc12 [Daidzin] (top concentration 46.0829 µM)", "TARGET DESC": "SB.msgc-1", "ASSAY METRIC": "area under the dose-response curve", "NUMERIC READOUT": 498}
{"COMPOUND": "CCn1cc(-c2ccnc3[nH]c(-c4cccc(CN(C)C)c4)cc23)c(-c2ccc(NC(=O)N(C)C)cc2)n1 (top concentration 46.0829 µM)", "TARGET DESC": "SB.msgc-1", "ASSAY METRIC": "area under the dose-response curve", "NUMERIC READOUT": 450}
{"COMPOUND": "CC(C)C(=O)Oc1ccc(CO)cc1[C@H](CCN(C(C)C)C(C)C)c1ccccc1 [Fesoterodine fumarate] (top concentration 46.0829 µM)", "TARGET DESC": "SB.msgc-1", "ASSAY METRIC": "area under the dose-response curve", "NUMERIC READOUT": 512}

What value of area under the dose-response curve has been recorded for this entry: O=C1c2c(O)cc(O)cc2O[C@H](c2cc(O)c(O)c(O)c2)[C@H]1O [Dihydromyricetin] (top concentration 46.0829 µM)
512

What value of area under the dose-response curve has been recorded for this entry: CCCC1OC2C[C@H]3[C@@H]4CCC5=CC(=O)C=C[C@]5(C)[C@H]4C(O)C[C@]3(C)[C@]2(C(=O)CO)O1 (stereo not given in full) [Budesonide] (top concentration 46.0829 µM)
552

What value of area under the dose-response curve has been recorded for this entry: COc1cc([C@@H]2c3cc4c(cc3[C@@H](O[C@@H]3O[C@@H]5CO[C@@H](C)O[C@H]5[C@H](O)[C@H]3O)[C@H]3COC(=O)[C@H]23)OCO4)cc(OC)c1O [Etoposide] (top concentration 46.0829 µM)
400

What value of area under the dose-response curve has been recorded for this entry: O=C1NC(=O)/C(=C/c2ccc(-c3ccc(F)cc3O)o2)S1 (top concentration 46.0829 µM)
522

What value of area under the dose-response curve has been recorded for this entry: Cc1ccc(C(=O)Nc2ccc([S+](=O)([O-])O)c3cc([S+](=O)([O-])O)cc([S+](=O)([O-])O)c23)cc1NC(=O)c1cccc(NC(=O)Nc2cccc(C(=O)Nc3cc(C(=O)Nc4ccc([S+](=O)([O-])O)c5cc([S+](=O)([O-])O)cc([S+](=O)([O-])O)c45)ccc3C)c2)c1 [Suramin sodium] (top concentration 46.0829 µM)
474
